The compounds listed here are annotated with their Percent Effect.
Target: Tyrosyl-tRNA synthetase, putative (Trypanosoma cruzi (strain CL Brener)) (UniProt Q4DSP6)
Sequence (Q4DSP6 as listed by the source): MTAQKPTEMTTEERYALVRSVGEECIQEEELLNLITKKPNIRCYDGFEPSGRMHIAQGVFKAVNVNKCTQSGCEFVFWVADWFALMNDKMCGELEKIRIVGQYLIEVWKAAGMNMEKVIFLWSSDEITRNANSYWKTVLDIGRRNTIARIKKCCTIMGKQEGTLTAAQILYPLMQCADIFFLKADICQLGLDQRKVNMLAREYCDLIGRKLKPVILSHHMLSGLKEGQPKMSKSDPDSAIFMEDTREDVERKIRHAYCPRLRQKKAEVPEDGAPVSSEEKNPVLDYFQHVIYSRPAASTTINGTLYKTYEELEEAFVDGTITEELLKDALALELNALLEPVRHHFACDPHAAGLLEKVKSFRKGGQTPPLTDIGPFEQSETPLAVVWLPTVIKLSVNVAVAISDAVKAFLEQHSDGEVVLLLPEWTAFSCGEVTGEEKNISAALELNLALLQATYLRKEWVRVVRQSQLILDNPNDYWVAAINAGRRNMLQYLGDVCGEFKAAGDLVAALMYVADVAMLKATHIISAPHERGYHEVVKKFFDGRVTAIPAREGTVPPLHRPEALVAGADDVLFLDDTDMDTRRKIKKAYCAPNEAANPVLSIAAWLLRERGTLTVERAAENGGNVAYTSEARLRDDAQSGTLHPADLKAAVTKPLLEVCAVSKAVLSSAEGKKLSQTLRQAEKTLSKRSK
Assay: Trypanosoma cruzi tyrosyl tRNA synthetase (TcYRS) _High Tyrosine SOP
Assay type: functional
Parameters: scale not given: in the data most compounds retested in dose-response had high values
Details: 30 µM
Write it as a number; the unit % goes unstated.

Study these solved cases before continuing.
Compound	Units	Value Reported
Cc1n[nH]c(C)c1C1CCCN1C(=O)CNC(=O)C(C)(C)C (centres undefined)	%	0
CCC(=O)N(C)C1CCN(Cc2ncc(C)c(OC)c2C)CC1	%	5.83
CCn1nc(C)c2nnn(CC(=O)Nc3cccc(Cl)c3)c(=O)c21	%	6.35
CC(C)CC(=O)N1CC[C@@H]2[C@H](CC1)N(S(C)(=O)=O)CCS2(=O)=O	%	5.94

Which value of Percent Effect has been reported for `Cc1cc(C(=O)N2C[C@@H]3[C@@H](C2)OCC(=O)N3CC2CC2)no1` in the records?
-54.8

Now try CC(NC(=O)CCOc1ccccc1Cl)c1nnc2n1CCC2 (centres undefined) .
5.42
